- test-method-notes: Assessment of solubility: HT solubility in pION buffer, UV spectrophotometry
- stated-conditions: pION system solution buffer, pH 7.4, pH 7.4, aqueous buffer, kinetic from dmso stock, Solubility (pH 7.4), pH 7.4 buffer, 16-19 h incubation, 1.0% DMSO
parameter-measured: solubility

Some entries whose results are on file:
- compound: "Cc1ccc(OCc2ccc(CN3CCOCC3)cc2C)c(-c2csc(NCCC(=O)O)n2)c1"
  reported-measurement: "> 52 µg/mL"
- compound: "Cc1cc(CN2CCOCC2)ccc1COc1ccc(Cl)cc1-c1csc(N2C3CCC2CC(C(=O)O)C3)n1 (stereo not shown)"
  reported-measurement: "27 µg/mL"
- compound: "Cc1cc(CN2CCS(=O)(=O)CC2)ccc1COc1c(C)cccc1-c1csc(N2C[C@H]3CC[C@@H](C2)[C@H]3C(=O)O)n1"
  reported-measurement: "> 59 µg/mL"
- compound: "Cc1ccc(OCc2ccc(CN3CCC(S(C)(=O)=O)CC3)cc2C)c(-c2csc(N3CCC(C(=O)O)CC3)n2)c1"
  reported-measurement: "> 70 µg/mL"
- compound: "Cc1ccc(OCc2ccc(C(=O)N(C)CC(=O)N(C)C)cc2C)c(-c2csc(N3C[C@H]4CC[C@@H](C3)[C@H]4C(=O)O)n2)c1"
  reported-measurement: "> 58 µg/mL"
- compound: "Cc1ccc(OCc2ccc(CN3CCS(=O)(=O)CC3)cc2C)c(-c2csc(N3CCC(C(=O)O)CC3C(F)(F)F)n2)c1 (stereo not shown)"
  reported-measurement: "> 63 µg/mL"

Param item = Cc1cc(C(=O)N2CCCCC2)ccc1COc1ccc(Cl)cc1-c1csc(N2CCC(C(=O)O)CC2C)n1 (stereo not shown) ; retrieve measured solubility. 26 µg/mL

Where these numbers come from: patent US8815857B2
